These entries and their values trace back to patent US12448423.

Target: T1, HIS-tagged human NKG2D (human, UniProt P26718 73-216, limits assumed)
T1 construct: Captured on HIS1K biosensors; not shown: HIS tag
T1 sequence (looked up): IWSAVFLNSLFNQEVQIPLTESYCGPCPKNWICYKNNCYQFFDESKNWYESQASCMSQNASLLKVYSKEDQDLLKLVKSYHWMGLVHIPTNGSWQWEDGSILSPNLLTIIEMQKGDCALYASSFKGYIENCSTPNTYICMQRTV
Experiment: Octet (BLI): His-tagged human NKG2D captured on HIS1K biosensors, dipped into 100 nM bivalent mAb
For each record, write down the corresponding pKd.
The read-out pKd is expressed as -log10 of concentration in moles per litre.

Look at this binder and give its reported pKd. XENP27606 (antibody, human IgG1, kappa, V domains shown, humanized bivalent anti-NKG2D mAb, IgG1 with ablation variants; also called mAb B[NKG2D]_H3L2_IgG1_PVA_/S267K) VH: EVQLVESGGGLVQPGGSLRLSCAASGYTFTSYWMNWVRQAPGKGLVWVSRIDPYDSETHYNQKVKGRFTISVDKAKSTAYLQMNSLRAEDTAVYYCAKMGDYSFDYWGQGTLVTVSS VL: DIQLTQSPDSLAVSLGERATINCKASGNIHNYLAWYQQKPGQSPKVLVYNAKTLADGVPSRFSGSGSGTDYTLTISSLQAEDVAVYYCQHFWSTTWTFGGGTKVEIKR 8.94

Quick one: XENP27599 (antibody, human IgG1, kappa, V domains shown, humanized bivalent anti-NKG2D mAb, IgG1 with ablation variants; also called mAb B[NKG2D]_H1_L1.1_IgG1_PVA_/S267K) VH: QVQLVQSGAEVKKPGASVKVSCKASGYTFTSYWMNWVRQAPGQGLEWMGRIDPYDSETHYNQKFQGRVTMTVDKSTSTAYMELSSLRSEDTAVYYCAKMGDYSFDYWGQGTLVTVSS VL: DIQLTQSPSSLSASVGDRVTITCRASGNIHNYLAWYQQKPGKSPKVLVYNAKTLADGVPSRFSGSGSGTDYTLTISSLQPEDFATYYCQHFWSTPWTFGGGTKVEIKR 8.46

Quick one: XENP27604 (antibody, human IgG1, kappa, V domains shown, humanized bivalent anti-NKG2D mAb, IgG1 with ablation variants; also called mAb B[NKG2D]_H3L1_IgG1_PVA_/S267K) VH: EVQLVESGGGLVQPGGSLRLSCAASGYTFTSYWMNWVRQAPGKGLVWVSRIDPYDSETHYNQKVKGRFTISVDKAKSTAYLQMNSLRAEDTAVYYCAKMGDYSFDYWGQGTLVTVSS VL: DIQLTQSPSSLSASVGDRVTITCRASGNIHNYLAWYQQKPGKSPKVLVYNAKTLADGVPSRFSGSGSGTDYTLTISSLQPEDFATYYCQHFWSTTWTFGGGTKVEIKR 9.00
